Sourced from the supplement of paper PMC12042874

Experiment: amyloid nucleation score (Sup35N fusion, yeast selection) (log enrichment); library NNK3; higher = more nucleation; inactive = no reads after selection;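 note: zero at mode of non-aggregating sequences after 7 days selection at 30°C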
Readout Name: amyloid nucleation score

As a guide, the following entries are already answered.
Input: In one line, give reported amyloid nucleation score of the entry ELYMQMCYRRIGCV .
Output: inactive

Input: Check the records and state amyloid nucleation score for DSCVPIYVDTYGGDLDVNGG
Output: inactive

Input: # return recorded amyloid nucleation score for entry PLCFLFNQFSYGA
Output: inactive

Input: Return amyloid nucleation score for the following substance: YSTVYIGSQVRVDDTLSMSA
Output: inactive

Input: State, in one line, measured amyloid nucleation score of RVFGCKKGGSRLW
Output: inactive

Input: Give amyloid nucleation score for ATSEYWILLVFYLCDIAQVS
Output: inactive

Others:
Input: Give a short answer stating reported amyloid nucleation score for VYILFNWSRPSCHLIEHFRA .
Output: inactive

Input: Recall and state the measured amyloid nucleation score for QSSCGIMQPYRQWMPYSTYG .
Output: inactive

Input: Retrieve amyloid nucleation score measured for VISMRVTGVVHRFWNEVYRD and print it.
Output: 1.22

====

Let's look at some substances and their measured amyloid nucleation score.
Experiment: amyloid nucleation score (Sup35N fusion, yeast selection) (log enrichment); library NNK1; higher = more nucleation; inactive = no reads after selection
I only need the number, thanks.

Examples with their reported amyloid nucleation score follow.
Input: Read off the recorded amyloid nucleation score for LGFLRLFKKYVFYACCDVYS
Output: -0.175

Input: Note amyloid nucleation score for the substance shown: YPNHGLLRQ
Output: 0.166

Input: Give reported amyloid nucleation score value for FFGMLDPSTER
Output: -0.73

Input: # return recorded amyloid nucleation score for entry RSVYSDLSQTYRLQDFFETM
Output: -1.69

Input: Give the reported amyloid nucleation score for this substance. IGLKKGHYNLILHYYFVWKV
Output: 0.505

Input: Look up amyloid nucleation score of VTDEFCPVLSGG and report it.
Output: 0.317

Input: Assign amyloid nucleation score to the following record: VSLCEMNRSFCWDAGASGRV
Output: 0.621

Input: Specify amyloid nucleation score for IGQGFNCIR and stop.
Output: -0.083

Input: Please report the measured amyloid nucleation score for VWNYVYGMMWCM
Output: 5.54

Input: Give the reported amyloid nucleation score for this substance. CLKWTVNIDGFIPDARLPRS
Output: 3.18

More entries:
Input: Output amyloid nucleation score of YRLRGGP
Output: -0.25

Input: Using the record for EYGVGDKVIWDDMI , state its measured amyloid nucleation score.
Output: -0.151

Input: Query amyloid nucleation score for LLLIFNEELW
Output: -0.28

====

Assay: amyloid nucleation score (Sup35N fusion, yeast selection) (log enrichment); library NNK3; higher = more nucleation; inactive = no reads after selection
Readout Name: amyloid nucleation score

Input: Return value of amyloid nucleation score for input EDLSVNNSAYVFPSLE , no commentary.
Output: inactive

Input: For the substance TYENDLC , give its measured amyloid nucleation score value.
Output: inactive

Input: State its amyloid nucleation score for this substance: GVDLDLLICGYMLWMDYCSG
Output: inactive

Input: Give a short answer stating reported amyloid nucleation score for INSVSRGCINHFASVEGPCI .
Output: inactive

Input: Answer with the recorded amyloid nucleation score of IMYPIRSSGLEPLNMCGYQA only.
Output: inactive

Input: Input WIFENMSYIRKICQWCKSYV , output reported amyloid nucleation score.
Output: inactive

Input: Report amyloid nucleation score for CNDLVYFMMFVLYLVTRWET
Output: inactive

Input: Please list amyloid nucleation score recorded for the substance LAVFKFDRSLIWDTTVRVFH
Output: inactive

***
Input: Give reported amyloid nucleation score value for DGMTMFLSYN
Output: -0.208

Input: Return amyloid nucleation score for the following substance: DFGFYWSSVGHAGLETKLYP
Output: inactive

Input: For the substance VQSSPVYMFMTNNSF , report amyloid nucleation score.
Output: 1.8

Input: Could you please provide reported amyloid nucleation score for RCIGALRTRPSTEGRTSLRI ? Thanks!
Output: inactive

Input: Look up and report measured amyloid nucleation score for this entry: GMQAGTGSKCCGRTGQI
Output: inactive

Input: Complete the entry with amyloid nucleation score for CNSYTYVEGSNYNGSSQGLD
Output: inactive
